Values compiled from the supplement of paper PMC12667976.

B1: library; numbered along this chain (parent)
chain: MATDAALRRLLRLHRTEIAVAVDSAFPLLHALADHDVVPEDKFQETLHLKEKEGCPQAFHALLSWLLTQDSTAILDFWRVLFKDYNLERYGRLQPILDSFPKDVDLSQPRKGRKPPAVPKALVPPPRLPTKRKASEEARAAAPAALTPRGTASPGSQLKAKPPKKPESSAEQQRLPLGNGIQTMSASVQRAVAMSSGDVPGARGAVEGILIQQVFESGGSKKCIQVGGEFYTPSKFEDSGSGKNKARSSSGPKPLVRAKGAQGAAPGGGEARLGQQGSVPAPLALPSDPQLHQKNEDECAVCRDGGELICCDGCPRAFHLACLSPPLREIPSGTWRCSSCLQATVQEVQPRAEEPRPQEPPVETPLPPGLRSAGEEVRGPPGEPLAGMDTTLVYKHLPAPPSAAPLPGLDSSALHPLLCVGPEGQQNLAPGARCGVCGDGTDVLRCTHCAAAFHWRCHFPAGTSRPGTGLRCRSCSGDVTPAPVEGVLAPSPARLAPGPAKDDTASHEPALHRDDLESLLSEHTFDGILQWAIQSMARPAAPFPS

Variants of: B1
procedure_text: AIRE transcriptional activation functional score (insulin promoter-GFP; nonsense median 0, synonymous median 1) (normalised score); higher = higher AIRE activity (more reporter activation)
measurement_context: with insulin promoter-GFP reporter in HEK293
Examples of variants with documented AIRE transcriptional activation functional score follow.
Write the value as a bare number.

P289N    0.167

Reported AIRE transcriptional activation functional score of A403Q : 0.915

Reported AIRE transcriptional activation functional score of F26S : 0.0967

Reported AIRE transcriptional activation functional score of V123H : 1.19

Reported AIRE transcriptional activation functional score of P492T : 1.31

Reported AIRE transcriptional activation functional score of M388F : 1.15

Reported AIRE transcriptional activation functional score of E353D : 0.963

Reported AIRE transcriptional activation functional score of P286T : 1.07

Reported AIRE transcriptional activation functional score of A403L : 1.29

Reported AIRE transcriptional activation functional score of I330Y : 0.572
